Test system: NCI-H522 lung
Assay: NCI tumour cell line growth inhibition, 48 h; in the data active means GI50 below about 0.43 µM; inactive means the rest
Answer with one of the outcomes given here: T = active, F = inactive

compound	label
C#CCOc1ccc2ncnc(Nc3ccc(NC(=O)CCl)cc3)c2c1	F

Task: Test call, this compound: `CC[C@H](Nc1nc(N)nc(N)c1Cl)c1nc2cccc(NCc3ccc(C(=O)NO)cc3)c2c(=O)n1-c1ccccc1`
Result: F

###

System: UACC-62 melanoma
Assay: NCI tumour cell line growth inhibition, 48 h
readout_name: TGI

A selection of reference data follows.
molecule	target_of_assay	TGI
CCOC(=O)c1cc(C2CCN(CC(C)CC)C2=S)c(C(=O)/C=C(/C)N)[nH]1 (centres undefined)	UACC-62 melanoma	> 50 µM
CC1CCCN(CC(O)CN2CCCc3ccccc32)C1 (centres undefined)	UACC-62 melanoma	> 100 µM
CC1(C)[C@@H]2C[C@H]1C(Cc1ccc(C[C@H]3c4cc(-c5ccccn5)ncc4[C@H]4C[C@@H]3C4(C)C)cc1)c1cc(-c3ccccn3)ncc12 (some centres undefined)	UACC-62 melanoma	5.68 µM

Task: Report TGI, nothing else, for this molecule: CC(=O)OCC(OC(C)=O)C(OC(C)=O)C(OC(C)=O)C(=O)CNn1c(-c2ccccc2)nc2ccc(Br)cc2c1=O (centres undefined)
Result: > 100 µM

###

System: RXF 393 renal
Experiment: NCI tumour cell line growth inhibition, 48 h
readout_name: TGI

Completed entries (count: 6):
compound	target_of_assay	result
N#CCC(=O)N/N=C1/C(=O)NC(=O)C(=O)C1c1nc2ccccc2s1 (stereo not given)	RXF 393 renal	> 100 µM
O=C(N/C(=C\c1ccc(Br)cc1)c1nc2ccccc2s1)c1ccccc1	RXF 393 renal	> 100 µM
COc1cc(-c2nc(SCC(=O)Nc3ccc(C(C)=O)cc3)[nH]c(=O)c2C#N)cc(OC)c1OC	RXF 393 renal	> 100 µM
Cn1c2ccccc2c(=O)c2c(O)cc3c(c21)C=CC1(CCCC1)O3	RXF 393 renal	> 100 µM
CC(C)=CCC/C(C)=C/CC/C(=C/COP(=O)(OCc1ccc([N+](=O)[O-])o1)N(C)CCCCCl)CC=C(C)C (stereo not given)	RXF 393 renal	22.8 µM
CC(=O)OCC(OC(C)=O)C(OC(C)=O)C(OC(C)=O)C(=O)CNn1c(-c2ccccc2)nc2ccc(Br)cc2c1=O (stereo not given)	RXF 393 renal	> 100 µM

Task: Supply TGI value. Item: `CCOC(=O)c1cc2cc(NC(=O)c3cc4cc([N+](=O)[O-])ccc4n3C)ccc2n1C`
Result: > 100 µM

Task: Retrieve TGI measured for CS(=O)c1ccc(-c2nc(-c3ccc(F)cc3)c(-c3ccncc3)[nH]2)cc1 (stereo not given) and print it.
Result: 39.3 µM

Task: Please give the documented TGI of `CO/C(=N\N=C\c1ccc(OC)cc1OC)c1ccncc1`
Result: > 10 µM

Task: Kindly indicate its recorded TGI. Item: `COc1cc(OC)c(OC)cc1/C=C1\C=Cc2ccccc21`
Result: 49.7 µM

###

Tested on: MDA-MB-231 breast
Experiment: NCI tumour cell line growth inhibition, 48 h
Lab note: compare TGI against 40 µM. Equal or greater, write YES. Smaller, write NO.

Field: example entries. Status: answers known.
compound	target_of_assay	label
CCOC(=O)c1c2c(c(O)c3ccccc3c(O)n(-c3ccc(C)cc3)c1C)C(=O)C=CC2=O	MDA-MB-231 breast	YES
CCOC(=O)N1c2ccccc2S(=O)(=O)c2ccccc21	MDA-MB-231 breast	YES

Task: Check the entry c1ccc2cc(OCC3CO3)c(OCC3CO3)cc2c1 (stereo unspecified) : does TGI equal or exceed 40 µM?
Result: YES

Task: Exam item: decide whether the reported TGI for `Cc1[nH]n(-c2nc3c(c(=O)[nH]2)CCC3)c(=O)c1CCO` is at least 40 µM.
Result: YES

Task: Is TGI for `O=C(Nc1cccc(C(F)(F)F)c1)c1cccc(NC2=C(Cl)C(=O)N(Cc3ccccc3)C2=O)c1` at or above 40 µM?
Result: YES

Task: Record `CC(F)(F)c1cc(F)ccc1-c1sc2cc(O)ccc2c1Oc1ccc(/C=C/C(=O)O)cc1` ; criterion: TGI no lower than 40 µM. Met?
Result: NO

Task: Has `CCC(CC)C(=O)OC[n+]1cccc(-c2c(COC(=O)NC(C)C)c(COC(=O)NC(C)C)c3n2CCC3)c1` a recorded TGI greater than or equal to 40 µM?
Result: YES

###

System: HL-60(TB) leukemia
Test: NCI tumour cell line growth inhibition, 48 h; in the data active = GI50 below about 0.43 µM; inactive = the rest
Pick from active, inactive when you respond.

Sample answers from the record:
compound	label
CCCCCC(=O)OCC(=O)O[C@@H]1C[C@]2(C(C)C)O[C@@]1(C)[C@@H]1CC[C@@H](C)[C@H]1[C@@H]2OC(=O)/C=C/c1ccccc1	inactive
COc1ccccc1CNC(=O)C1c2ccccc2C(=O)N(CC(C)C)C1c1cccs1 (centres undefined)	inactive
Cc1c2ncccc2nc2[nH]c3ccc(OCCN(C)C)cc3c12	inactive
CN(C)CCOc1nc2c3cccnc3cc(-c3cccc(Cl)c3)c2c2ncccc12	inactive
CC[C@@H](C)[C@H]([C@H](CC(=O)N1CCC[C@@H]1[C@@H](OC)[C@H](C)C(=O)N[C@H](Cc1ccccc1)c1nccs1)OC)N(C)C(=O)[C@H](NC(=O)[C@@H](C(C)C)N(C)C)C(C)C	active

In the following, a different compound is considered.
Task: What did the test return for CS(=O)c1ccc(-c2nc(-c3ccc(F)cc3)c(-c3ccncc3)[nH]2)cc1 (centres undefined) ?
Result: inactive

###

TGI values by entry
Tested on: HL-60(TB) leukemia
Test: NCI tumour cell line growth inhibition, 48 h

molecule	result
COc1cc2c(cc1OC)C1C(O)C(OC)C=C3CC[N+](C)(C2)C31 (stereo unspecified)	> 100 µM
Cc1c2ncccc2nc2[nH]c3ccc(OCCN(C)C)cc3c12	16.5 µM
COc1ccc(/C(Cl)=C(\C=O)c2ccc(Br)cc2)cc1OC	> 100 µM
CC1(C)OC(=O)C(C)(C)OC1=O	> 100 µM
O=c1n(-c2ccccc2)c(=O)n2n1C1CCC2CC1	> 100 µM
CS(=O)c1ccc(-c2nc(-c3ccc(F)cc3)c(-c3ccncc3)[nH]2)cc1 (stereo unspecified)	53.1 µM

Task: Provide TGI value for the following molecule: `Cn1c2ccccc2c(=O)c2c(O)cc3c(c21)C=CC1(CCCC1)O3`
Result: > 100 µM

Task: Hello, please tell me recorded TGI for this one: `Cc1cc(S(=O)(=O)Nc2nc(N)nc(N3CCOCC3)n2)c(SCC(=O)O)cc1Cl`
Result: > 10 µM

Task: # return recorded TGI for entry COC(=O)/C(C#N)=C1\NC(=O)CC(c2ccccc2)C1C#N (stereo unspecified)
Result: > 100 µM

Task: Indicate its recorded TGI; the molecule in question is `OCCSCc1cc2c(O)c(c1)Cc1cc(CSCCO)cc(c1O)Cc1cc(CSCCO)cc(c1O)Cc1cc(CSCCO)cc(c1O)C2`
Result: > 100 µM

Task: Note TGI for the molecule shown: `CO/C(=N\N=C\c1ccc(OC)cc1OC)c1ccncc1`
Result: > 10 µM

###

Test system: NCI-H460 lung
The reply should be one of these categories: class 1 for active, class 0 for inactive

Task: Name the outcome recorded for `CCN(CC)CCCCCOc1cc(O)c2c(=O)cc(-c3ccccc3)oc2c1` in the assay.
Result: class 0

Task: What classification did `CCCCCCNC(=O)Oc1ccc(/C(=C(\C)c2ccccc2)c2ccc(OCCN3CCCCC3)cc2)cc1` end up with in this test?
Result: class 0

###

Test system: HOP-18 NSCLC
Experiment: NCI tumour cell line growth inhibition, 48 h
Each record here notes measured TGI.

compound	target_of_assay	TGI
O=C(/C=C/c1c(O)ccc2ccccc12)c1cccc2ccccc12	HOP-18 NSCLC	> 100 µM
N#CCC(=O)N/N=C1/C(=O)NC(=O)C(=O)C1c1nc2ccccc2s1 (stereo unspecified)	HOP-18 NSCLC	> 100 µM

Task: Return TGI (reported value) for this compound: Cc1cc(=O)[nH]c(NN2C(Cl)C(=O)C2c2cccc([N+](=O)[O-])c2)n1 (stereo unspecified)
Result: 78 µM

Task: For the compound CC1=Nc2c([nH]c(=S)[nH]c2=O)NC(c2ccc(Cl)c(Cl)c2)C1 (stereo unspecified) , give its reported TGI.
Result: > 100 µM

Task: Quick one: give measured TGI for `NC(=O)c1csc(CCCCCCc2nc(C(N)=O)cs2)n1`
Result: > 100 µM

###

Tested on: UACC-62 melanoma
Assay: NCI tumour cell line growth inhibition, 48 h
readout_name: TGI (µM)
Only the number, expressed in µM, is required.

Would you please look over these solved cases?
molecule	TGI (µM)
COc1ccc(-n2c3c(c4cc(O)ccc42)C(=O)c2ccccc2C3=O)cc1	25.6
CC(C)C[C@H](NC(=O)CCc1ccccc1)B(O)O	72.9

# input for lookup
Task: Please look at `Cc1c2ccnc(-c3ccccc3)c2cc2c1[nH]c1ccccc12` and tell me its recorded TGI on UACC-62 melanoma.
Result: 5.48

Measured values drawn from PubChem BioAssay (NCI) for this set.
